# Tested on: ABCA1 gene
# test: Quantitative analysis of ABCA1 gene regulation in THP-1 cells (real-time PCR)
# Assay type: cell-based, human
# applied-conditions: Gene regulation by LXR (Human); differentiated THP-1 cells, 18 hrs, ABCA1 mRNA; read-out: EC50 ABCA1
measurement-label: EC50 (µM)

Some compounds with known EC50 results, for comparison:
CCS(=O)(=O)c1cccc(Oc2cccc(-c3c(C(C)C)nc4c(Cl)cccn34)c2)c1 1.61
CCc1nc2c(C(F)(F)F)cccn2c1-c1cccc(Oc2cc(F)cc(S(C)(=O)=O)c2)c1 0.147
CC(C)c1nc2c(Cl)cccn2c1-c1cccc(Oc2cccc(S(=O)(=O)C(C)C)c2)c1 1.26
CCc1nc2c(C#N)cccn2c1-c1cccc(Oc2cccc(S(=O)(=O)C(C)C)c2)c1 1.94
CCc1nc2c(C#N)cccn2c1-c1cccc(Oc2cccc(S(=O)(=O)NC)c2)c1 1.47

P: CCc1nc2c(C#N)cccn2c1-c1cccc(Oc2cccc(S(=O)(=O)CC)c2)c1
Q: CCCCOCc1nc2c(C(F)(F)F)cccn2c1-c1ccc(Oc2cccc(S(C)(=O)=O)c2)cc1
// pick larger EC50 from pair: P vs Q Write the label of whichever entry you select.
P

P: CCc1nc2c(C(F)(F)F)cccn2c1-c1cccc(Oc2cccc(S(=O)(=O)CCCO)c2)c1
Q: CC(C)c1nc2c(C(F)(F)F)cccn2c1-c1cccc(Oc2cccc(S(=O)(=O)CCCO)c2)c1
Which entry shows the lesser value of EC50 here, P or Q ? Write the label of whichever entry you select.
P
(P: 0.771 µM, Q: 1.64 µM)

1: CCc1nc2c(Cl)cccn2c1-c1cccc(Oc2cccc(S(C)(=O)=O)c2)c1
2: CC(C)(C)c1nc2c(C(F)(F)F)cccn2c1-c1cccc(Oc2cccc(S(=O)(=O)CCCO)c2)c1
// pick larger EC50 from pair: 1 vs 2 Write the label of whichever entry you select.
2
